- System: A375 multi-cell spheroids with HUVEC/MSC, viability
- assay-notes: Anticancer human tumor A375 cell line growth inhibition [GQUAD];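 also: spheroids exposed to compounds for seven days before readout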
- test-parameters: curve of first compound; second compound 0.0316 µM
quantity-name: IC50

Solved entries (count: 4):
C#Cc1c(F)ccc2cc(O)cc(-c3ncc4c(N5CC6CCC(C5)N6)nc(OCC56CCCN5CC(F)C6)nc4c3F)c12 (stereo not given) + CN(C)c1ccc(Nc2c3ccc(NC(=O)CCN4CCCC4)cc3nc3cc(NC(=O)CCN4CCCC4)ccc23)cc1: > 10000 nM
CCCS(=O)(=O)Nc1ccc(F)c(C(=O)c2c[nH]c3ncc(-c4ccc(Cl)cc4)cc23)c1F + CN(C)c1ccc(Nc2c3ccc(NC(=O)CCN4CCCC4)cc3nc3cc(NC(=O)CCN4CCCC4)ccc23)cc1: < 31.6 nM
Nc1ccn(C2OC(CO)C(O)C2(F)F)c(=O)n1 (stereo not given) + Cc1[nH]c2ccc(F)cc2c1-c1nc2c3cccnc3c3ncccc3c2[nH]1: < 31.6 nM
COc1cc(C2c3cc4c(cc3C(OC3OC5COC(C)OC5C(O)C3O)C3COC(=O)C23)OCO4)cc(OC)c1O (stereo not given) + Cc1cnc(CNC(=O)c2c(=O)c3ccc(N4CCCN(C)CC4)nc3n3c2sc2ccccc23)cn1: 656 nM

Q. // lookup IC50 for Cn1ncnc1[C@H]1c2n[nH]c(=O)c3cc(F)cc(c23)N[C@@H]1c1ccc(F)cc1 + Cc1[nH]c2ccc(F)cc2c1-c1nc2c3cccnc3c3ncccc3c2[nH]1
A. > 316 nM
